From: patent US9409952B2

EXPERIMENT: PAMPA (parallel artificial membrane permeability assay)
Format: in vitro ADME
CONDITION_DETAILS: PAMPA; membrane permeation rate (Pe); 50 mM MOPSO buffer pH 6.5 with 5.0% glycocholic acid, 37° C., 18 hours; read-out: iPAMPA Pe
Starred links: 1 amine or outer side, 2 acyl side, 3 side chain; linkers in the order of their positions; H or OH if unused. Positions of bridges follow the written chain, without caps; N, C: chain ends. Non-standard residues stand in square brackets, D forms with d. Residues, ends and D or L forms follow the SMILES beside them. *: point of attachment. NMeF = CN[C@@H](Cc1ccccc1)C(=O)O; NMeβAla = CN(CCC(=O)[*:2])[*:1]; NMeL = CN[C@@H](CC(C)C)C(=O)O; NMeA = CN[C@@H](C)C(=O)O; Piperidide = C1CCN(*)CC1
# key: entry, value: Papp at 18 hours, 50 µM
QUANTITY: Papp at 18 hours, 50 µM (×10⁻⁶ cm/s)

- CC(C)C[C@H]1C(=O)N(C)[C@@H](C)C(=O)N(C)[C@@H](Cc2ccccc2)C(=O)N[C@@H]([C@@H](C)O)C(=O)N(C)[C@@H](C)C(=O)N(C)[C@@H](Cc2ccccc2)C(=O)N[C@H](C(=O)N(C)[C@@H](Cc2ccccc2)C(=O)N[C@@H](C)C(=O)N2CCCCC2)CC(=O)N(C)[C@@H](C)C(=O)N(C)[C@@H](C)C(=O)N(C)[C@@H](CC(C)C)C(=O)N[C@@H](C)C(=O)N1C [DP-344] ([NMeA][NMeA][NMeL]A[NMeL][NMeA][NMeF]T[NMeA][NMeF]D[NMeF]A-Piperidide; lactam N-11): 22
- CC[C@H](C)[C@@H]1NC(=O)[C@H](Cc2ccccc2)NC(=O)[C@H]([C@@H](C)O)NC(=O)[C@H](CC(C)C)NC(=O)CCN(C)C(=O)C[C@@H](C(=O)N2CCCCC2)NC(=O)[C@H](CC(C)C)NC(=O)[C@H](Cc2ccccc2)N(C)C(=O)[C@H](Cc2ccccc2)NC(=O)[C@H](CC(C)C)NC1=O [DP-424] ([NMeβAla]LTFILF[NMeF]LD-Piperidide; lactam N-10): 46

###

EXPERIMENT: Metabolic stability in human hepatic microsome
Assay type: in vitro ADME
CONDITION_DETAILS: microsomes, pH 7.4; human hepatic microsome, NADPH(+); read-out: CL NADPH(+)
Starred links: 1 amine or outer side, 2 acyl side, 3 side chain; linkers in the order of their positions; H or OH if unused. Positions of bridges follow the written chain, without caps; N, C: chain ends. Non-standard residues stand in square brackets, D forms with d. Residues, ends and D or L forms follow the SMILES beside them. *: point of attachment. NMeF = CN[C@@H](Cc1ccccc1)C(=O)O; NMeβAla = CN(CCC(=O)[*:2])[*:1]; NMeL = CN[C@@H](CC(C)C)C(=O)O; NMeV = CN[C@H](C(=O)O)C(C)C; NMeA = CN[C@@H](C)C(=O)O; Piperidide = C1CCN(*)CC1; β3hA = C[C@H](N)CC(=O)O; tBu = CC(C)(C)*
QUANTITY: microsomal CLint at 1 uM (µL/min/mg)

* CC(C)C[C@H]1C(=O)N[C@H](C(=O)N2CCCCC2)CC(=O)N(C)CCC(=O)N[C@@H]([C@@H](C)O)C(=O)N(C)[C@@H](C)C(=O)N[C@@H](COC(C)(C)C)C(=O)N(C)[C@@H](Cc2ccccc2)C(=O)N(C)[C@@H](CC(C)C)C(=O)N1C [DP-704] ([NMeβAla]T[NMeA]S(tBu)[NMeF][NMeL][NMeL]D-Piperidide; lactam N-8) | 83
* CC(C)C[C@H]1C(=O)N(C)[C@@H](CC(C)C)C(=O)N[C@@H]([C@@H](C)O)C(=O)N(C)[C@@H](Cc2ccccc2)C(=O)NCC(=O)N(C)[C@@H](C(C)C)C(=O)N[C@@H](Cc2ccccc2)C(=O)N[C@@H](C)CC(=O)N(C)CCC(=O)N[C@@H](COC(C)(C)C)C(=O)N1C [DP-777] (cyclo(F[β3hA][NMeβAla]S(tBu)[NMeL][NMeL]T[NMeF]G[NMeV])) | 428

###

EXPERIMENT: Mouse PK test of peptides (intravenous and oral administration)
CONDITION_DETAILS: male, C57BL/6J, in vivo, iv, 20 mg/kg
Positions of bridges follow the written chain, without caps; N, C: chain ends. Non-standard residues stand in square brackets, D forms with d. Residues, ends and D or L forms follow the SMILES beside them. *: point of attachment. NMeF = CN[C@@H](Cc1ccccc1)C(=O)O; NMeI = CC[C@H](C)[C@H](NC)C(=O)O; Piperidide = C1CCN(*)CC1
QUANTITY: clearance (mL/min/kg)

• CC[C@H](C)[C@H](NC(=O)[C@@H]1CCCN1C(=O)[C@@H]1CC(=O)N[C@@H](C)C(=O)N[C@@H](CC(C)C)C(=O)N(C)[C@@H]([C@@H](C)CC)C(=O)N[C@@H](C(C)C)C(=O)N(C)[C@@H](Cc2ccccc2)C(=O)N[C@@H](CC(C)C)C(=O)N(C)[C@@H](Cc2ccccc2)C(=O)N1)C(=O)N1CCCCC1 [DP-965] (AL[NMeI]V[NMeF]L[NMeF]DPI-Piperidide; lactam N-8) = 1.73

###

# key: entry, value: Papp at 18 hours, 50 µM
EXPERIMENT: PAMPA (parallel artificial membrane permeability assay)
Type: in vitro ADME
CONDITION_DETAILS: PAMPA; membrane permeation rate (Pe); 50 mM MOPSO buffer pH 6.5 with 5.0% glycocholic acid, 37° C., 18 hours; read-out: iPAMPA Pe
Starred links: 1 amine or outer side, 2 acyl side, 3 side chain; linkers in the order of their positions; H or OH if unused. Positions of bridges follow the written chain, without caps; N, C: chain ends. Non-standard residues stand in square brackets, D forms with d. Residues, ends and D or L forms follow the SMILES beside them. *: point of attachment. NMeF = CN[C@@H](Cc1ccccc1)C(=O)O; NMeGABA = CN(CCCC(=O)[*:2])[*:1]; NMeI = CC[C@H](C)[C@H](NC)C(=O)O; NMeL = CN[C@@H](CC(C)C)C(=O)O; NMeV = CN[C@H](C(=O)O)C(C)C; NMeA = CN[C@@H](C)C(=O)O; Piperidide = C1CCN(*)CC1; dNMeA = CN[C@H](C)C(=O)O; β3hA = C[C@H](N)CC(=O)O; Sar = CNCC(=O)O; tBu = CC(C)(C)*
QUANTITY: Papp at 18 hours, 50 µM

• CC[C@H](C)[C@H](NC(=O)[C@H](CC(C)C)N(C)C(=O)CN(C)C(=O)[C@@H]1CC(=O)N[C@H](C(C)C)C(=O)N[C@@H](C)C(=O)N[C@@H]([C@@H](C)O)C(=O)N(C)[C@@H](C)C(=O)N[C@@H](Cc2ccccc2)C(=O)N(C)[C@@H](CC(C)C)C(=O)N(C)[C@@H](Cc2ccccc2)C(=O)N(C)[C@@H](CC(C)C)C(=O)N1)C(=O)N1CCCCC1 [DP-576] ([dV]AT[NMeA]F[NMeL][NMeF][NMeL]D[Sar][NMeL]I-Piperidide; lactam N-9) = 15 ×10⁻⁶ cm/s
• CC[C@H](C)[C@H]1C(=O)N(C)[C@@H](CC(C)C)C(=O)N(C)[C@@H](Cc2ccccc2)C(=O)N[C@@H]([C@@H](C)O)C(=O)N(C)[C@@H](Cc2ccccc2)C(=O)N(C)[C@@H](CC(C)C)C(=O)N(C)[C@@H](CC(C)C)C(=O)N[C@H](C(=O)N2CCCCC2)CC(=O)N[C@H](C(C)C)C(=O)N[C@@H](C)C(=O)N1C [DP-256] ([dV]A[NMeI][NMeL][NMeF]T[NMeF][NMeL][NMeL]D-Piperidide; lactam N-10) = 19 ×10⁻⁶ cm/s
• CC(C)C[C@@H]1NC(=O)[C@H](C)NC(=O)C[C@H](C)NC(=O)[C@H](Cc2ccccc2)N(C)C(=O)[C@H](CC(C)C)N(C)C(=O)[C@H](C)NC(=O)[C@H](Cc2ccccc2)N(C)C(=O)[C@H](CC(C)C)N(C)C1=O [DP-798] (cyclo(AL[NMeL][NMeF]A[NMeL][NMeF][β3hA])) = 69 ×10⁻⁶ cm/s
• CC(C)C[C@H]1C(=O)N[C@@H]([C@@H](C)O)C(=O)N(C)[C@@H](Cc2ccccc2)C(=O)N(C)[C@@H](CC(C)C)C(=O)NCC(=O)N(C)[C@@H](C(C)C)C(=O)N[C@@H](Cc2ccccc2)C(=O)N[C@H](C(=O)N(C)[C@@H](Cc2ccccc2)C(=O)N(C)[C@@H](Cc2ccccc2)C(=O)N[C@@H](C)C(=O)N2CCCCC2)CC(=O)N(C)[C@H](C)C(=O)N[C@@H](C(C)C)C(=O)N1C [DP-503] ([dNMeA]V[NMeL]T[NMeF][NMeL]G[NMeV]FD[NMeF][NMeF]A-Piperidide; lactam N-10) = 0.2 ×10⁻⁶ cm/s
• CC(C)C[C@H]1C(=O)N[C@H](C(=O)N2CCCCC2)CC(=O)N(C)CCCC(=O)N(C)[C@@H](Cc2ccccc2)C(=O)N[C@@H]([C@@H](C)O)C(=O)N(C)[C@@H](CC(C)C)C(=O)N[C@@H](COC(C)(C)C)C(=O)N1C [DP-681] ([NMeGABA][NMeF]T[NMeL]S(tBu)[NMeL]D-Piperidide; lactam N-7) = 28 ×10⁻⁶ cm/s
